assay method text: Cell Viability - NIH 3T3 (AID 541);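 also: cells exposed to compound for 40 hours; nearly all actives have a fitted effect of over 25% in size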
setup conditions: NIH 3T3 cell viability, qHTS; series mostly up to 92.2 µM
Results filed as inconclusive are left out. Active and inactive are the calls of the source. Calls follow the shape of the dose curve; as a rule, active = well fitted cell-killing curve with a large enough effect; inconclusive = small, poorly fitted or top-dose-only effect; inactive = flat fitted curve, though single readings scatter.
Possible outcomes: active, inactive

given smiles | class
CC(=O)Nc1ccc(O)cc1 | inactive
NS(=O)(=O)c1cc(C(=O)O)c(NCc2ccco2)cc1Cl | inactive
Nc1ccc(S(N)(=O)=O)cc1 | inactive
CN(C)c1ccc2nc3ccc(=[N+](C)C)cc-3sc2c1 | active
COc1c2occc2cc2ccc(=O)oc12 | inactive

----------
assay method text: Drug repurposing screens with cells derived from glioblastoma tumor samples (AID 1345199); also: % is scaled to controls: 0 for no effect and ±100 for the full control effect; nearly all actives have a fitted effect of over 40% in size
setup conditions: GBM patient neurospheres viability, ATP luminescence, 48 h; at 45.9 µM (top of the series); tumour line D
Inconclusive results are not listed.
# activity, negative = cell killing listing for each entry below
measure name: activity, negative = cell killing (%)

compound | unit string | experimental value
Cc1cccc(C)c1OCC(=O)N[C@@H](Cc1ccccc1)[C@@H](O)C[C@H](Cc1ccccc1)NC(=O)[C@H](C(C)C)N1CCCNC1=O | % | -27.5
CCC(C)(Oc1ccc(C2(c3ccc(OC(C)(CC)C(=O)O)cc3)CCCCC2)cc1)C(=O)O (stereo not given) | % | -12.5
COc1ccc(C2(C#N)CCC(C(=O)O)CC2)cc1OC1CCCC1 (stereo not given) | % | -10.6
C[C@]12CCC(=O)C=C1CC[C@@H]1[C@H]2[C@@H](O)C[C@@]2(C)[C@H]1CC[C@]2(O)C(=O)CO | % | -14.8
C[C@H](Cn1cnc2c(N)ncnc21)OCP(=O)(O)O | % | -7.53
O=C(O)c1cn(-c2ccc(F)cc2)c2cc(N3CCNCC3)c(F)cc2c1=O | % | -2.04
COc1cc2nc(N3CCN(C(=O)C4CCCO4)CC3)nc(N)c2cc1OC (stereo not given) | % | -6.51
O=C(O)CCNC(=O)c1ccc(N=Nc2ccc(O)c(C(=O)O)c2)cc1 | % | -11.2
N[C@@H](Cc1cc(I)c(Oc2cc(I)c(O)c(I)c2)c(I)c1)C(=O)O | % | -1.99
CCCCCCCCCCCCCCCCCCCCCCO | % | 1.13

----------
assay method text: Cell Viability - LYMP2-023 (AID 975);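 also: cells exposed to compound for 24 hours at 37 °C; nearly all actives have a fitted effect of over 55% in size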
setup conditions: LYMP2-023 lymphoblastoid cell viability; series mostly up to 92.2 µM
Results filed as inconclusive are left out. Activity calls are given as the source filed them. Calls follow the shape of the dose curve; as a rule, active = well fitted cell-killing curve with a large enough effect; inconclusive = small, poorly fitted or top-dose-only effect; inactive = flat fitted curve, though single readings scatter. Peptide text beside a SMILES is read from it.
Possible outcomes: true = active, false = inactive

compound | class
Cc1ccc(C)c(OCCCC(C)(C)C(=O)O)c1 | false
COc1c2occc2cc2ccc(=O)oc12 | false
CCCCC(CC)COC(=O)C(C#N)=C(c1ccccc1)c1ccccc1 (configuration not stated) | false
c1ccc2[nH]c(-c3cscn3)nc2c1 | false
CN(C)c1ccc2nc3ccc(=[N+](C)C)cc-3sc2c1 | true
Nc1ccc(S(N)(=O)=O)cc1 | false
COC(=O)[C@H](Cc1ccccc1)NC(=O)[C@@H](N)CC(=O)O (H-Asp-Phe-OMe) | false

----------
assay method text: qHTS assay for small molecule antagonists of peroxisome proliferator-activated receptor delta signaling (AID 588535);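 also: cells co-treated with a PPAR-delta agonist as stimulator during compound exposure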
setup conditions: HEK293T PPARd-UAS-bla, beta-lactamase FRET ratio, 18 h; 460 nm channel
Records with an inconclusive call do not appear.
# max response listing for each entry below
measure name: max response (%)

compound | unit string | experimental value
CCCCC(CC)COC(=O)C(C#N)=C(c1ccccc1)c1ccccc1 (stereo unspecified) | % | -3.97
COc1c2occc2cc2ccc(=O)oc12 | % | 59.3
c1ccc2[nH]c(-c3cscn3)nc2c1 | % | -13.4
COc1cc(OC)c(C(=O)CCCN2CCCC2)c(OC)c1 | % | 15.9
CCc1nc(N)nc(N)c1-c1ccc(Cl)cc1 | % | -4.91
Cc1ccc(C)c(OCCCC(C)(C)C(=O)O)c1 | % | 34

----------
System: Dd2
assay method text: qHTS profiling for inhibitors of Plasmodium falciparum proliferation (AID 504749); also: nearly all actives have a fitted effect of over 60% in size
setup conditions: P. falciparum in erythrocytes, SYBR Green DNA, 72 h; series mostly up to 28.7 µM
Results filed as inconclusive are left out. Calls of active or inactive are those of the source. Calls come from the whole dose curve; as a rule, active = well fitted inhibition curve with a large enough effect; inconclusive = small, poorly fitted or top-dose-only effect; inactive = flat fitted curve, though single readings scatter.
Possible outcomes: 1 (active), 0 (inactive)

molecule | class
Cc1cc(C2CCCCC2)n(O)c(=O)c1 | 0
Cc1ncc([N+](=O)[O-])n1CC(C)O (stereo unspecified) | 0
CNC[C@@H](O)[C@@H](O)[C@H](O)[C@H](O)CO | 0
Cc1cc2cc3c(C)cc(=O)oc3c(C)c2o1 | 0
Cc1ccc(NC(=O)c2ccc(CN3CCN(C)CC3)cc2)cc1Nc1nccc(-c2cccnc2)n1 | 1
O=c1oc2cc(O)ccc2s1 | 0

----------
experimental system: Glutaminase kidney isoform, mitochondrial (Homo sapiens)
assay method text: qHTS for Inhibitors of Glutaminase (GLS): LOPAC Validation (AID 624146); also: nearly all actives have a fitted effect of over 60% in size
setup conditions: glutaminase enzyme activity inhibition; series mostly up to 46.1 µM
From the text: Glutaminase (GLS) catalyzes the hydrolysis of glutamine into glutamate and ammonia. It plays a critical role in glutaminolysis, which is an important energy source for proliferating cells. […] The overall goal of this project is to identify small molecule inhibitors of GLS through quantitative high throughput screening (qHTS) of the MLSMR. […]
Inconclusive results are not listed. The source made the active and inactive calls. Calls come from the whole dose curve; as a rule, active = well fitted inhibition curve with a large enough effect; inconclusive = small, poorly fitted or top-dose-only effect; inactive = no such curve, though single readings can be large or run the other way.
Possible outcomes: active, inactive

compound | class
CC(=O)O[C@H]1C(=O)[C@@]2(C)C([C@H](OC(=O)c3ccccc3)[C@]3(O)C[C@H](OC(=O)[C@H](O)[C@@H](NC(=O)c4ccccc4)c4ccccc4)C(C)=C1C3(C)C)[C@]1(OC(C)=O)CO[C@@H]1C[C@@H]2O (stereo partly specified) | inactive
O=c1cc(N2CCOCC2)oc2c(-c3ccccc3)cccc12 | inactive
Nc1nc(OCc2ccccc2)c2[nH]cnc2n1 | inactive
O=C(c1ccccc1)c1ccc2n1CCC2C(=O)O (stereo unspecified) | inactive
O=C1NC(=O)C(c2ccccc2[N+](=O)[O-])=C1Nc1ccc(O)c(Cl)c1 | active
CCN(CC)C(=S)SSC(=S)N(CC)CC | active
CNC[C@H](O)c1ccc(O)c(O)c1 | inactive
CCOC(=O)C(C)Oc1cccc2c(=O)n(CC(=O)Nc3ccc4c(c3)OCCO4)ccc12 (stereo unspecified) | inactive
CC1(C)NC(=O)N(c2ccc([N+](=O)[O-])c(C(F)(F)F)c2)C1=O | inactive
C[C@H](Cc1ccc(O)c(O)c1)[C@@H](C)Cc1ccc(O)c(O)c1 | active
CN(C)CCCC1(c2ccc(F)cc2)OCc2cc(C#N)ccc21 (stereo unspecified) | inactive

----------
assay method text: High Content Imaging Cell-Based qHTS for Inhibitors of the mTORC1 Signaling Pathway in MEF (Tsc2-/-, p53-/-) Cells (AID 2666);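 also: percent of cells scored positive for phospho-rpS6 Ser235/236 immunostaining by imaging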
setup conditions: series mostly up to 38.3 µM
Records with an inconclusive call do not appear. The source made the active and inactive calls. Calls follow the shape of the dose curve; as a rule, active = well fitted inhibition curve with a large enough effect; inconclusive = small, poorly fitted or top-dose-only effect; inactive = flat fitted curve, though single readings scatter.
Possible outcomes: active, inactive

compound | class
O=c1c(O)c(-c2ccc(O)cc2O)oc2cc(O)cc(O)c12 | inactive
CC1(C)NC(=O)N(c2ccc([N+](=O)[O-])c(C(F)(F)F)c2)C1=O | inactive
Cc1cccc(C#Cc2ccccc2)n1 | inactive
CC(=O)N1CCN(c2ccc(OC[C@H]3CO[C@](Cn4ccnc4)(c4ccc(Cl)cc4Cl)O3)cc2)CC1 | inactive
O=c1cc(N2CCOCC2)oc2c(-c3ccccc3)cccc12 | active
Nc1ccn([C@@H]2O[C@H](CO)[C@@H](O)C2O)c(=O)n1 (stereo not given in full) | inactive
CCN(CC)C(=S)SSC(=S)N(CC)CC | active
NC(=NCc1ccccc1)NC(=O)c1nc(Cl)c(N)nc1N | inactive
Nc1nc(N)c(N=O)c(OCC2CCCCC2)n1 | active
O=C1c2ccccc2-c2n[nH]c3cccc1c23 | inactive

----------
assay method text: P-glycoprotein substrates identified in KB-8-5-11 adenocarcinoma cell line, qHTS therapeutic library screen (AID 1346987); also: nearly all actives have a fitted effect of over 65% in size
setup conditions: KB-8-5-11 (P-gp overexpressing) viability, CellTiter-Glo, 72 h; series mostly up to 44.5 µM
Records with an inconclusive call do not appear. The source made the active and inactive calls. Calls come from the whole dose curve; as a rule, active = well fitted inhibition curve with a large enough effect; inconclusive = small, poorly fitted or top-dose-only effect; inactive = flat fitted curve, though single readings scatter.
Possible outcomes: active, inactive

molecule | class
O=Nc1c(-c2c(O)[nH]c3cc(Br)ccc23)[nH]c2ccccc12 | active
Cc1cc2cc3c(C)cc(=O)oc3c(C)c2o1 | inactive
O=C(CS(=O)Cc1ccco1)NCC=CCOc1cc(CN2CCCCC2)ccn1 (centres undefined) | inactive
COC(=O)N[C@H](C(=O)N[C@@H](Cc1ccccc1)[C@@H](O)CN(Cc1ccc(-c2ccccn2)cc1)NC(=O)[C@@H](NC(=O)OC)C(C)(C)C)C(C)(C)C | inactive
CN(C)C(=O)[C@H](O)[C@H](Cc1ccccc1)NC(=O)c1cc2cc(Cl)ccc2[nH]1 | inactive
O=C(OC1C[C@H]2CC[C@@H](C1)[N+]21CCCC1)C(O)(c1ccccc1)c1ccccc1 (some centres undefined) | inactive
CC(C)c1nc(CN(C)C(=O)N[C@H](C(=O)N[C@@H](Cc2ccccc2)C[C@H](O)[C@H](Cc2ccccc2)NC(=O)OCc2cncs2)C(C)C)cs1 | inactive
Cc1cccc(C#Cc2ccccc2)n1 | inactive
C[Se]CCC(N)C(=O)O (centres undefined) | inactive
